The measured values listed here are drawn from a melting point compilation (Tetko et al.; mined from patent text by program, amines drawn as free bases though some values may be those of a salt).

Below, each entry is listed alongside its reported melting point.

Compound	melting point
COc1ccc2c(Cl)nncc2c1	181 to 183 °C
O=C(O)c1cccc(-c2ccc(CNC(=O)c3cccnc3Oc3ccc(F)cc3)cc2)c1	184 to 186 °C
O=C1CC(c2ccccc2)Cc2[nH]ccc21 (centres undefined)	187 to 189 °C
CC(=O)NC[C@H]1CN(c2ccc(N3CCC(n4ncnn4)CC3)c(F)c2)C(=O)O1	186 to 188 °C
Cc1ccc(O)c(C)c1O	102 to 104 °C
COC(=O)c1ccc(CN2CCCc3cc4c(cc32)C(C)(C)CCC4(C)C)cc1	173 to 175 °C

Indicate its recorded melting point; the compound in question is `COc1ccc(CCOc2cncc(-c3cccc(C(=O)O)c3)c2)cc1OC`
181 to 182 °C

Return value of melting point for input `CNC(=O)c1ccccc1Nc1nc(Nc2cc3c(cc2OC)NC(=O)CCC3(C)C)ncc1Cl` , no commentary.
197 to 199 °C

Quick one: give measured melting point for Cc1cc(C2(c3ccc(Cl)cc3)OCCS2)ccc1NC(=O)c1cccc(I)c1C(=O)NC(C)C (centres undefined)
214 to 217 °C

Hello, please tell me recorded melting point for this one: `Oc1ccc(OCc2nnc(C3CC3)s2)cc1`
79 to 83 °C

Using known records, supply melting point for `NNc1nc(Cl)nc2ccccc12`
> 280 °C

Query melting point for `CCOC(=O)c1cn(Cc2ccc(OCc3nc(-c4ccccc4)oc3C)cc2)nc1O`
152 to 153 °C

Supply melting point value. Item: `Cc1ccc(CNC(=O)C2=C(C(=O)Nc3ccc(Br)cc3F)CCCC2)cc1`
167 to 168 °C

* * *

# maps each entry to its melting point

Solved entries (count: 5):
Compound	Recorded value
CCCCCCCCCCCCc1nnn(C(C)C(=O)Nc2c(OC)cc(OC)cc2OC)n1 (stereo not drawn)	155 to 157 °C
COc1cc2c(cc1OC)[C@@H](c1ccc([N+](=O)[O-])cc1)NN(C1=NCCS1)[C@@H](C)C2	206 to 212 °C
CC(NC1=NS(=O)(=O)c2ccc(Cl)cc2N1)C(C)(C)C (stereo not drawn)	> 220 °C
Cc1nnc2n1CC(=O)N(C)c1ccc(Cl)cc1-2	228 to 230 °C
NC1N=C(Cl)C=C(Cl)N1c1c([N+](=O)[O-])cc(C(F)(F)F)c(Cl)c1[N+](=O)[O-] (stereo not drawn)	199 to 200 °C

Find the measured melting point of `CN(Cc1ccccc1)C1CCN(c2ccc(N)cc2)CC1` and report it.
138 °C

// fetch melting point given entry COC(=O)C1CCCc2c(noc2-c2ccc(Cl)cc2)C1 (stereo not drawn)
94 to 95 °C

Answer with the recorded melting point of COc1cc(Cl)nc(NC(=O)NS(=O)(=O)C(C)S(=O)(=O)N2CCCC2)n1 (stereo not drawn) only.
158 to 160 °C

Item Cc1ccc(C23CCN(C)CC2O3)cc1 (stereo not drawn) : provide melting point
46 to 50 °C

Look up and state reported melting point for CC12CCCC1C1=CCc3cc(O)ccc3C1CC2 (stereo not drawn)
130 to 134 °C

Supply reported melting point belonging to this compound: `CN(C)CCc1[nH]c2ccccc2c1CC#N`
122 to 127 °C

Give the value of melting point reported for the following: CC(C)C(C(=O)O)c1cc(Cl)c(O)c(Cl)c1 (stereo not drawn)
152 to 154 °C

Look up melting point of Cc1c(C#N)sc(N=Nc2c(NCC(C)O)nc(NCC(C)O)c(C#N)c2C)c1C#N (stereo not drawn) and report it.
268 to 269 °C
